assayedSystem: SHP2-C SH2;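 note: peptide library displayed on the E. coli surface as eCPX fusions, selected cells deep-sequenced, score is each peptide's frequency after selection divided by its frequency in the input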
assay: SH2 binding enrichment of the phosphorylated peptide, bacterial display (enrichment ratio); higher = better substrate or ligand; peptides without Tyr show the background
measuredProperty: SH2 binding enrichment

| sequenceRecord | SH2 binding enrichment |
| --- | --- |
| EFENSYIFDIN [GAB1_Y83] | 0.854 |
| LLAGLYRGQAL [FGFR4_Y390] | 0.882 |
| LLSVAYQNVVG [YWHAG_Y49_K50Q] | 2.77 |
| INASGYRVGPA [ACSM1_Y477_I479V] | 0.691 |
| SLLLSYFLIKW [NUP160_Y773_P768S_YF] | 0.978 |

(1) NELTYYCYKKD [CD59_Y87_C89Y]
(2) LITILYIGFLG [KCNQ1_Y267_T265I]
Ask: Which of the two gives a bigger number for SH2 binding enrichment: 1 or 2 ? // output: label of the selected item
Reply: 2

These data points were gathered from the supplement of paper PMC10065799.
